- Tested on: Saccharomyces cerevisiae BY4741 SeMeCo community
- ASSAY TEXT: z-score of subpopulation abundance vs DMSO median, subpopulation auxotrophic for LM; higher = larger share of this subpopulation than in DMSO controls
- PARTICULARS: 10 µM; 24 h; SM minimal medium; subpopulation (auxotrophy): LM
Counter-ions that a name gives are not always drawn.
z-score of subpopulation abundance reference
Lab note: jot the number down without any unit.

Please review the following examples before continuing.
[
  {
    "COMPOUND": "Cn1cc(C2=C(c3cn(C4CCN(Cc5ccccn5)CC4)c4ccccc34)C(=O)NC2=O)c2ccccc21",
    "z-score of subpopulation abundance": -1.68
  },
  {
    "COMPOUND": "CN(C)[C@@H]1C(=O)C(C(N)=O)=C(O)[C@@]2(O)C(=O)C3=C(O)c4c(O)cccc4[C@@](C)(O)[C@H]3C[C@@H]12 [Tetracycline HCl]",
    "z-score of subpopulation abundance": -0.24
  },
  {
    "COMPOUND": "CC[C@@H](C(N)=O)N1CCCC1=O",
    "z-score of subpopulation abundance": -0.55
  },
  {
    "COMPOUND": "N#Cc1nn(-c2c(Cl)cc(C(F)(F)F)cc2Cl)c(N)c1[S+]([O-])C(F)(F)F (stereo not drawn)",
    "z-score of subpopulation abundance": -0.79
  },
  {
    "COMPOUND": "COc1ccc(C=O)cc1",
    "z-score of subpopulation abundance": -0.17
  }
]

Please provide the recorded z-score of subpopulation abundance for "Cc1cc(O)ccc1Cl" , tested on Saccharomyces cerevisiae BY4741 SeMeCo community.
-0.37

Please provide the recorded z-score of subpopulation abundance for "C[N+]1(C)[C@@H]2C[C@@H](OC(=O)[C@H](CO)c3ccccc3)C[C@H]1[C@@H]1O[C@@H]12" , tested on Saccharomyces cerevisiae BY4741 SeMeCo community.
-0.56

Please provide the recorded z-score of subpopulation abundance for "C=CC[C@]1(O)CC[C@H]2[C@@H]3CCC4=CC(=O)CCC4=C3C=C[C@@]21C" , tested on Saccharomyces cerevisiae BY4741 SeMeCo community.
0.15

###

- Tested on: Saccharomyces cerevisiae BY4741 SeMeCo community
- ASSAY TEXT: z-score of subpopulation abundance vs DMSO median, subpopulation auxotrophic for HLU; higher = larger share of this subpopulation than in DMSO controls
- PARTICULARS: 10 µM; 24 h; SM minimal medium; subpopulation (auxotrophy): HLU
Where a name gives a salt, the structure may show the parent alone.
PARAMETER MEASURED: z-score of subpopulation abundance
Lab note: jot the number down without any unit.

Requested field: z-score of subpopulation abundance. Item: N[C@@H]1C[C@H]1c1ccccc1 [Tranylcypromine (2-PCPA) HCl]
0.05

###

- System: Saccharomyces cerevisiae BY4741 SeMeCo community
- ASSAY TEXT: mean cell size (pixel area) (pixels); higher = larger cells
- PARTICULARS: 10 µM; 24 h; SM minimal medium
Where a name gives a salt, the structure may show the parent alone.
PARAMETER MEASURED: mean cell size
Lab note: jot the number down without any unit.

Please review the following examples before continuing.
[
  {
    "COMPOUND": "O=C(O[C@H]1C[C@H]2CC[C@@H](C1)[N+]21CCCC1)C(O)(c1ccccc1)c1ccccc1 [Trospium chloride]",
    "MEAS VALUE": 12.5
  },
  {
    "COMPOUND": "COc1ccc(C(CN(C)C)C2(O)CCCCC2)cc1 (stereo not drawn) [Venlafaxine]",
    "MEAS VALUE": 12.1
  },
  {
    "COMPOUND": "CC(C)N(CCC(C(N)=O)(c1ccccc1)c1ccccn1)C(C)C (stereo not drawn) [Disopyramide]",
    "MEAS VALUE": 12.3
  },
  {
    "COMPOUND": "C[C@@H]1CC[C@H]2[C@@H](C)C(=O)O[C@@H]3O[C@@]4(C)CC[C@@H]1[C@]32OO4 [Artemisinin]",
    "MEAS VALUE": 12.3
  },
  {
    "COMPOUND": "CCN(CC)CCOC(=O)C(O)(c1ccccc1)c1ccccc1 [Benactyzine hydrochloride]",
    "MEAS VALUE": 12.4
  },
  {
    "COMPOUND": "CN(C)C(=O)Oc1ccc[n+](C)c1 [Pyridostigmine Bromide]",
    "MEAS VALUE": 12.5
  },
  {
    "COMPOUND": "COC(=O)C1=CCCN(C)C1 [Arecoline HBr]",
    "MEAS VALUE": 12.4
  },
  {
    "COMPOUND": "CC1(C)S[C@@H]2[C@H](N)C(=O)N2[C@H]1C(=O)O [6-Aminopenicillanic acid]",
    "MEAS VALUE": 12.1
  },
  {
    "COMPOUND": "Nc1ccncc1 [4-Aminopyridine]",
    "MEAS VALUE": 12.2
  },
  {
    "COMPOUND": "CC[C@H]1CN2CC[C@]3(C(=O)Nc4ccccc43)[C@@H]2C[C@@H]1/C(=C\\OC)C(=O)OC [Rhynchophylline]",
    "MEAS VALUE": 12.4
  }
]

Please find the next compound below.
Requested field: mean cell size. Item: Oc1cc(Cl)ccc1Oc1ccc(Cl)cc1Cl [Triclosan]
12.5

Recorded values, source the supplement of paper PMC8975748.
